- STUDY TARGET: T1, human BDCA2 ectodomain (Homo sapiens, UniProt Q8WTT0)
- T1 construct: huBDCA2 ectodomain: residues 257-425 above (underlined); murine IgG2a Fc (with G4S linker) (N, cleaved yes); made in house
- T1 sequence (Q8WTT0 45-213): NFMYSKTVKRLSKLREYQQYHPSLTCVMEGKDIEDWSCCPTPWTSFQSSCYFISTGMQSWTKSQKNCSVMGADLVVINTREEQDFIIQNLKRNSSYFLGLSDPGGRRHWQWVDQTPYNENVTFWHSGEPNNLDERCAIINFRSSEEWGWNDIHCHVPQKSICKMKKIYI
- PROTOCOL DESCRIPTION: Octet binding of mAbs on anti-human Fc tips to monomeric huBDCA2
- EXPERIMENTAL CONTEXT: Example 5, conditioned medium, hu24F4 variants
ASSAY READOUT: kdis (s⁻¹)
Quick note: give the figure in s⁻¹, leave out the unit.

Item H1/L1: hu24F4 variant, heavy chain version H1 (SEQ ID NO: 42), light chain version L1 (antibody, V domains shown) VH: EVQLVESGGGLVKPGGSLRLSCAASGFTFSTYTMSWVRQAPGKGLEWVSTISPGDSFGYYPDSVKGRFTISRDNAKNSLYLQMNSLRAEDTAVYYCARDIYYNYGAWFAYWGQGTLVTVSS VL: DIQLTQSPSSLSASVGDRVTITCKASQSVDYDGDSYMNWYQQKPGKAPKLLIYAASTLESGVPSRFSGSGSGTDFTLTISSLQPEDFATYYCQQSNEDPRTFGQGTKVEIK has what recorded kdis?
5.03e-06
